experiment: Single-dose pharmacokinetics of metapristone in rats (p.o. and i.v.), non-compartmental analysis; assay type: in vivo, Sprague Dawley (SD) rats; details: Sprague-Dawley, rat, plasma, po; male rats, p.o. 90 mg/kg
Assay Metric: AUC(0-t) (ng·h/mL)
Lab book: enter the figure in ng·h/mL, no units written.

Exercise: Quote AUC(0-t) reported for CC#C[C@]1(O)CC[C@H]2[C@@H]3CCC4=CC(=O)CCC4=C3[C@@H](c3ccc(NC)cc3)C[C@@]21C please.
Solution: 8760

###

assay: Single oral dose pharmacokinetics of metapristone in beagle dogs, non-compartmental analysis; format: in vivo; details: beagle, dog, plasma, po; female dogs, p.o. 11.25 mg/kg
Assay Metric: Cmax (ng/mL)
Lab book: enter the figure in ng/mL, no units written.

Exercise: Quote Cmax reported for CC#C[C@]1(O)CC[C@H]2[C@@H]3CCC4=CC(=O)CCC4=C3[C@@H](c3ccc(NC)cc3)C[C@@]21C please.
Solution: 190

###

assay: Single-dose pharmacokinetics of metapristone in rats (p.o. and i.v.), non-compartmental analysis; format: in vivo, Sprague Dawley (SD) rats; conditions: Sprague-Dawley, rat, plasma, po; female rats, p.o. 90 mg/kg; read-out: F
Assay Metric: bioavailability (%)
Lab book: enter the figure in %, no units written.

Exercise: Quote bioavailability reported for CC#C[C@]1(O)CC[C@H]2[C@@H]3CCC4=CC(=O)CCC4=C3[C@@H](c3ccc(NC)cc3)C[C@@]21C [metapristone, N-monodemethyl mifepristone] please.
Solution: 16.9

###

assay: Single oral dose pharmacokinetics of metapristone in beagle dogs, non-compartmental analysis; type: in vivo; conditions: beagle, dog, plasma, po; male dogs, p.o. 22.5 mg/kg
Assay Metric: CL/F (mL/min/kg)
Lab book: enter the figure in mL/min/kg, no units written.

Exercise: Quote CL/F reported for CC#C[C@]1(O)CC[C@H]2[C@@H]3CCC4=CC(=O)CCC4=C3[C@@H](c3ccc(NC)cc3)C[C@@]21C please.
Solution: 210

###

test: Single oral dose pharmacokinetics of metapristone in beagle dogs, non-compartmental analysis; type: in vivo; conditions: beagle, dog, plasma, po; male dogs, p.o. 5.6 mg/kg
Assay Metric: AUC(0-inf) (ng·h/mL)
Lab book: enter the figure in ng·h/mL, no units written.

Exercise: Quote AUC(0-inf) reported for CC#C[C@]1(O)CC[C@H]2[C@@H]3CCC4=CC(=O)CCC4=C3[C@@H](c3ccc(NC)cc3)C[C@@]21C please.
Solution: 230

###

assay: Single-dose pharmacokinetics of metapristone in rats (p.o. and i.v.), non-compartmental analysis; format: in vivo, Sprague Dawley (SD) rats; conditions: Sprague-Dawley, rat, plasma, po; female rats, p.o. 45 mg/kg; read-out: MRT (0-t)
Assay Metric: MRT last
Report field: quantity (unit follows the number).

Exercise: Quote MRT last reported for CC#C[C@]1(O)CC[C@H]2[C@@H]3CCC4=CC(=O)CCC4=C3[C@@H](c3ccc(NC)cc3)C[C@@]21C please.
Solution: 13.7 h

###

Assay: Single-dose pharmacokinetics of metapristone in rats (p.o. and i.v.), non-compartmental analysis
Type: in vivo, Sprague Dawley (SD) rats
Details: Sprague-Dawley, rat, plasma, iv; female rats, i.v. 10 mg/kg
Method: For pharmacokinetic study, rats were fasted overnight with free access to water using procedures reported previously. Ninety-six SD rats (forty-eight males and forty-eight females) were randomly divided into eight single-dose groups. […] The plasma samples obtained by centrifugation at 4000 g for 10 min and stored at −80 °Cuntil analysis. […] Metapristone was then separated and analyzed by the LC/MS/MS method according to the previously described procedures. […]
Assay Metric: half-life (h)
Lab book: enter the figure in h, no units written.

Exercise: Quote half-life reported for CC#C[C@]1(O)CC[C@H]2[C@@H]3CCC4=CC(=O)CCC4=C3[C@@H](c3ccc(NC)cc3)C[C@@]21C [metapristone, N-monodemethyl mifepristone] please.
Solution: 5.18
